- targetSystem: T1, PUF4 RNA-binding domain (Saccharomyces cerevisiae, UniProt P25339 537-888)
- T1 sequence: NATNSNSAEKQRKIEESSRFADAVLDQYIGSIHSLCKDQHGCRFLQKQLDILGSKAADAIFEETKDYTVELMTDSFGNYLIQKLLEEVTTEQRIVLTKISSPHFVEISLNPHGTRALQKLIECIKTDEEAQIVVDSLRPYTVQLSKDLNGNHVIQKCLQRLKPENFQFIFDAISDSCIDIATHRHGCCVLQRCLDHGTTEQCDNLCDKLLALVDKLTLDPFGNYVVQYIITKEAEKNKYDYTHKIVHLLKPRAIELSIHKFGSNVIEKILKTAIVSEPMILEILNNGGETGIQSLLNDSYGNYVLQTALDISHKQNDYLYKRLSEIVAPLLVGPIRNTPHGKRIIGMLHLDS
- assay: Mg; RNA-MaP; 20 mM Na-HEPES pH 7.4, 30 mM KOAc, 0.75 mM MgCl2, 0.1% Tween-20, 5% glycerol, 0.1 mg/mL BSA, 2 mM DTT; 25 C; 0.0125-409.6 nM protein
- conditionsUsed: tags: N-His6-TEV cleaved; C-SNAP kept, Cy3B-labelled; label: tethered on chip by stalled RNA polymerase
Parameter: log10 Kd. Scope: all listed entries.
readoutLabel: log10 Kd (log10 of the value in nM)

Ie_S4_P4E.1_K4.1_C4.1_H4.1_A4.1_[+7CTC]_F4.1_T4.1 (ssRNA) RNA: UUUGACAACUGAUCGUUCUUUCUUGUAUAUCUCUAUUCUUUCUCGAUCAGUUGUCUUU; 1.01
UCUCUUUGUAGCCUUUUCUCUU (ssRNA) [Ic_S1_P5E.1_K5.1_C5.1_H5.1_A5.1_[T5G]_[T6C]_[A7C]_F5.1_[A10T]_T5.1]; 2.67
Ia_S2_P4E.1_K4.1_C4.1_H4.1_A4.1_[A6C]_F4.1_T4.1 (ssRNA) RNA: UUUGAUUAAUAUGAUAUCGUUCUUUCUUGUAUCUUAUUCUUUCUCGAUAUCAUAUUAAUCUUU; 0.08
ACAAACAAUAUAUAUAUAACAAAC (ssRNA) [Id_ii_S3_P3E.3_K3.2_C3.2_[C-2A]_[T-1A]_H3.2_A3.1_F3.1_T3.2]; 2.73
UCUCUUUCUGUAUUAUCUCUU (ssRNA) [Ib_S1_P4E.1_K4.1_C4.1_H4.1_[G2C]_[A4G]_A4.1_F4.1_T4.1]; 1.40
Ie_S4_P3E.2_K3.1_C3.2_H3.1_A3.1_[+6C]_F3.1_T3.2 (ssRNA) RNA: UUUGACAACUGAUCGUUCUUUCUCUUGUAUACUAUAUUCUUUCUCGAUCAGUUGUCUUU; -0.39
Id_ii_S2_P3E.3_K3.2_C3.2_[T-1G]_H3.2_A3.1_F3.1_T3.2_[T9G]_[A10C] (ssRNA) RNA: UUUGAUUAAUAUGAUAUCGUUCUUUCUCGUAUAUAUAGCUUCUUUCUCGAUAUCAUAUUAAUCUUU; 2.03
UCUCUUUGUUUAUUUUCUCUU (ssRNA) [Ib_S1_P4E.1_K4.1_C4.1_H4.1_[A4T]_A4.1_F4.1_[A9T]_T4.1]; 2.55
UCUCUUCCUAUAUUAUUAACUCUCUU (ssRNA) [Id_ii_S1_P5E.3_K5.2_C5.2_[T-1C]_H5.2_A5.1_F5.1_T5.2_[T11A]_[A12C]]; 2.79
ACAAACUGACACUAUAGAACAAAC (ssRNA) [Id_ii_S3_P3E.4_K3.3_C3.2_[C-2T]_[T-1G]_H3.3_A3.1_F3.1_T3.2_[T9G]]; 3.27
Ic_S2_P4E.1_K4.1_C4.1_H4.1_A4.1_[T7A]_F4.1_[T8A]_T4.1 (ssRNA) RNA: UUUGAUUAAUAUGAUAUCGUUCUUUCUUGUAUAAAAUUCUUUCUCGAUAUCAUAUUAAUCUUU; 1.23
Ie_S2_P3E.2_K3.1_C3.2_H3.1_[+2TT]_A3.1_F3.1_T3.2 (ssRNA) RNA: UUUGAUUAAUAUGAUAUCGUUCUUUCUCUUGUUUAUAUAUAUUCUUUCUCGAUAUCAUAUUAAUCUUU; 1.16
Id_ii_S2_P4E.3_K4.2_C4.2_[C-2A]_[T-1C]_H4.2_A4.1_F4.1_T4.2_[G10C]_[T11G] (ssRNA) RNA: UUUGAUUAAUAUGAUAUCGUUCUUUCUACUAUAUAUUACGUUCUUUCUCGAUAUCAUAUUAAUCUUU; 2.20
Ic_S2_P5E.1_K5.1_C5.1_H5.1_A5.1_[T5A]_[A7T]_F5.1_[T8A]_[A10C]_T5.1 (ssRNA) RNA: UUUGAUUAAUAUGAUAUCGUUCUUUCUUGUAAUUAUCUUCUUUCUCGAUAUCAUAUUAAUCUUU; 2.05
Ib_S4_P3E.1_K3.1_C3.1_H3.1_[G2C]_A3.1_F3.1_[A8T]_T3.1 (ssRNA) RNA: UUUGACAACUGAUCGUUCUUUCUUCUAUAUUUUCUUUCUCGAUCAGUUGUCUUU; 3.21
UCUCUUUGUAUAUUACUCUCUCUCUU (ssRNA) [Ie_S1_P4E.1_K4.1_C4.1_H4.1_A4.1_F4.1_[+9CTCTC]_T4.1]; -0.16
Id_iii_S2_P5E.7_K5.3_C5.3_H5.3_A5.1_F5.1_T5.2_[T11C] (ssRNA) RNA: UUUGAUUAAUAUGAUAUCGUUCUUUCUUCUACACUUAUUACAUUCUUUCUCGAUAUCAUAUUAAUCUUU; 3.25
Ie_S2_P4E.1_K4.1_C4.1_H4.1_[+1CTT]_A4.1_F4.1_T4.1 (ssRNA) RNA: UUUGAUUAAUAUGAUAUCGUUCUUUCUUCUUGUAUAUUAUUCUUUCUCGAUAUCAUAUUAAUCUUU; -0.71
Ic_S4_P3E.1_K3.1_C3.1_H3.1_A3.1_[T5A]_F3.1_[T7C]_T3.1 (ssRNA) RNA: UUUGACAACUGAUCGUUCUUUCUUGUAAACAUUCUUUCUCGAUCAGUUGUCUUU; 2.57
UCUCUUUGUUGUAUUUUAGUUCUCUU (ssRNA) [Id_iii_S1_P4E.8_K4.4_C4.3_[C-2G]_H4.1_A4.2_F4.1_T4.2]; 0.35
Ic_S2_P4E.1_K4.1_C4.1_H4.1_A4.1_[T5A]_[A6T]_[T7A]_F4.1_[T8G]_[A9C]_T4.1 (ssRNA) RNA: UUUGAUUAAUAUGAUAUCGUUCUUUCUUGUAAUAGCUUCUUUCUCGAUAUCAUAUUAAUCUUU; 3.05
Id_ii_S2_P3E.2_K3.1_C3.2_[C-2A]_[T-1A]_H3.1_A3.1_F3.1_T3.2_[A10T] (ssRNA) RNA: UUUGAUUAAUAUGAUAUCGUUCUUUCUAAUGUAUAUAUUUUCUUUCUCGAUAUCAUAUUAAUCUUU; 0.80
